system: ATP; assay: switch fluorescence ratio, 500 uM ATP over buffer (Cy3 cluster intensity, sum of 5 cycles each) (fold (ratio)); higher = stronger signal-on switching upon ATP binding; sequences stand for … in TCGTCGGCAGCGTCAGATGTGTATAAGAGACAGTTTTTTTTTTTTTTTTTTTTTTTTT…TC; details: aptamer strand: ATP DNA aptamer (quencher-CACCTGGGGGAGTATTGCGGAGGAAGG + anchor), 100 nM annealed; ATP concentration: 500 uM;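 note: ATP exposure 15 min at 22 °C before imaging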
measured-endpoint: switch fluorescence ratio

Before answering, review these 2 worked examples.
GGGCCGATCA : 0.997
TACGCGTGGG : 1

Ask | Give recorded switch fluorescence ratio with ATP for the following sequence: GGAGCTGTCG
Reply | 0.977

Ask | Give recorded switch fluorescence ratio with ATP for the following sequence: CTGCTAGGCT
Reply | 1.01

Ask | Give recorded switch fluorescence ratio with ATP for the following sequence: GGAGTAACAT
Reply | 1.04

Ask | Give recorded switch fluorescence ratio with ATP for the following sequence: GGCGAAGTGC
Reply | 1.03

Ask | Give recorded switch fluorescence ratio with ATP for the following sequence: AATTATACAT
Reply | 1.04

Ask | Give recorded switch fluorescence ratio with ATP for the following sequence: TCGAGGCGGA
Reply | 0.985

Ask | Give recorded switch fluorescence ratio with ATP for the following sequence: CCTGTACGGA
Reply | 1

Ask | Give recorded switch fluorescence ratio with ATP for the following sequence: ACAGGGGGTA
Reply | 1.02
